# key: entry, value: Ratio EC50
Test: Resistance fold, ratio of EC50 for HIV1 harboring reverse transcriptase Y181C mutant […] to EC50 for wild type HIV1 […]
Assay type: functional
reported metric: Ratio EC50

>>> quantitative_result("COc1cc2cc(C#N)ccc2c(OC)c1Oc1cc(NCC(F)(F)F)nc(Nc2ccc(C#N)cc2)n1")
10
>>> quantitative_result("COc1cc2cc(C#N)ccc2c(OC)c1Oc1cc(NCCCOC(C)C)nc(Nc2ccc(C#N)cc2)n1")
13
>>> quantitative_result("COc1cc2cc(C#N)ccc2c(OC)c1Oc1cc(NCC2CC2)nc(Nc2ccc(C#N)cc2)n1")
9
>>> quantitative_result("COc1cc2cc(C#N)ccc2c(OC)c1Oc1cc(NCC2CCOC2)nc(Nc2ccc(C#N)cc2)n1 (centres undefined)")
9
>>> quantitative_result("COc1cc2cc(C#N)ccc2c(OC)c1Oc1cc(N2CCC(O)C2)nc(Nc2ccc(C#N)cc2)n1 (centres undefined)")
4
>>> quantitative_result("CCCNc1cc(Oc2c(OC)cc3cc(C#N)ccc3c2OC)nc(Nc2ccc(C#N)cc2)n1")
11
>>> quantitative_result("COc1cc2cc(C#N)ccc2c(OC)c1Oc1cc(NC2CC2)nc(Nc2ccc(C#N)cc2)n1")
9
>>> quantitative_result("COc1cc2cc(C#N)ccc2c(OC)c1Oc1cc(NC(C)(C)C)nc(Nc2ccc(C#N)cc2)n1")
12
>>> quantitative_result("COc1cc2cc(C#N)ccc2c(OC)c1Oc1cc(NC2CCCC2)nc(Nc2ccc(C#N)cc2)n1")
11
